# System: LOC_OS06G22820-cb001;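 also: purified Escherichia coli-expressed rice kinase domain construct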
# Sequence (as listed by the source): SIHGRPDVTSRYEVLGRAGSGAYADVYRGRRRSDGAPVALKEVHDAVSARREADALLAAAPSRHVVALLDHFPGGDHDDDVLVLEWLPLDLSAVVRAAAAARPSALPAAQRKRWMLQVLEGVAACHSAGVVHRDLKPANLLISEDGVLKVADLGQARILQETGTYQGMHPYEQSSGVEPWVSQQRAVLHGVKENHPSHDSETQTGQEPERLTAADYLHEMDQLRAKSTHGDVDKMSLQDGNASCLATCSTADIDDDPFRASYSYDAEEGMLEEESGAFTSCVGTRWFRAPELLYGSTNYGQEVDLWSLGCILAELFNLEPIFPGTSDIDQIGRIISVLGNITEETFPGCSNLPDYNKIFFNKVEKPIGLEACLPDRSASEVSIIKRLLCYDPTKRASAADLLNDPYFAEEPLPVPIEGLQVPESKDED
# PROTOCOL_DETAILS: thermal shift delta Tm vs DMSO control; higher = stronger stabilization (binding)
# EXPERIMENTAL_SETUP: 12.5 µM; protein concentration 2 µM
Note that class boundaries on thermal shift delta Tm are low band (below 0.4 °C), middle band (0.4 °C to below 0.8 °C), high band (0.8 °C or more)

COc1cc2ncnc(Sc3nnc(C)s3)c2cc1OC :: low band

Which band does C=CC(=O)N1CC[C@@H](Oc2nc(Nc3ccc(N4CCC(N5CCN(C)CC5)CC4)cc3)c(C(N)=O)nc2CC)C1 [Naquotinib(ASP8273)] fall in?
low band

For the record CC(C)NC(=O)COc1cccc(-c2nc(Nc3ccc4[nH]ncc4c3)c3ccccc3n2)c1 , report the class its thermal shift delta Tm corresponds to.
high band

Hello team, could you let me know which band the following compound falls into: C[C@@H]1COCCN1c1cc(=O)n2c(n1)N(Cc1cncc(Cl)c1)[C@H](C(F)(F)F)CC2
middle band

Please classify: CCn1nc(C2CCN(C(=O)CCO)CC2)nc1-c1cnc(N)c(-c2nnc(C(C)(C)C)o2)n1
high band

Which category fits this record: CO[C@H]1CC[C@H](N2C(=O)CNc3ncc(-c4ccc(C(C)(C)O)nc4)nc32)CC1
middle band

Bin? CC(C)(C)c1cc(NC(=O)Nc2ccc(-c3cn4c(n3)sc3cc(OCCN5CCOCC5)ccc34)cc2)no1 [Quizartinib (AC220)]
middle band
